Below, each entry is listed with its recorded Normalized fraction of input (relative to recovered MA-EpiNE7).
# Assay Target: Human Neutrophil Elastase (human, UniProt P08246)
# Protocol Text: display phage eluted from hNE beads, normalized to MA-EpiNE7 in a concurrent elution
Property Name: Normalized fraction of input (relative to recovered MA-EpiNE7) (ratio)

[[record]]
binder = "MA-BITI-E7 display phage (designed binder) RPDFCQLGYSAGPCVAMFPRYFYNGTSMACETFQYGGCMGNGNNFVTEKDCLQTCRGA"
readout_number = 0.13

[[record]]
binder = "MA-ITI-D1 display phage (other) KEDSCQLGYSAGPCMGMTSRYFYNGTSMACETFQYGGCMGNGNNFVTEKDCLQTCRTVGA"
readout_number = 0.0067

[[record]]
binder = "MA-ITI-D1E7 display phage (designed binder) KEDSCQLGYSAGPCVAMFPRYFYNGTSMACETFQYGGCMGNGNNFVTEKDCLQTCRGA"
readout_number = 0.027

[[record]]
binder = "MA-BITI display phage (designed binder) RPDFCQLGYSAGPCMGMTSRYFYNGTSMACETFQYGGCMGNGNNFVTEKDCLQTCRGA"
readout_number = 0.018

